Test system: Rattus norvegicus
Experiment: Antiinflammatory activity against formalin-induced paw edema in anaesthetized Albino rat acute inflammatory model at 20 mg/kg, po dosed 1 hr before formalin challenge assessed after 4 hrs
Format: functional
Reported Activity values are given for each entry in this list.
Express your answer as a number followed by its unit.

# example entries with known answers
{"columns": ["smiles-code", "endpoint-label", "value"],
 "data": [
  ["Cc1c(NC(=O)c2sc(=S)n(-c3ccccc3)c2N)c(=O)n(-c2ccccc2)n1C", "Activity", "43%"],
  ["Cc1c(NC(=O)/C(C#N)=C2\\SCC(=O)N2c2ccccc2)c(=O)n(-c2ccccc2)n1C", "Activity", "19%"],
  ["Cc1c(NC(=O)C2=C(N)N(c3ccccc3)C(=C(C#N)C#N)S2)c(=O)n(-c2ccccc2)n1C", "Activity", "40%"],
  ["Cc1c(NC(=O)/C(C#N)=C2\\SC=C(c3ccc(Cl)cc3)N2c2ccccc2)c(=O)n(-c2ccccc2)n1C", "Activity", "43%"],
  ["Cc1c(NC(=O)CSc2nnc(N)s2)c(=O)n(-c2ccccc2)n1C", "Activity", "38%"],
  ["Cc1c(NC(=O)/C(C#N)=C2\\SC=C(c3ccc(Cl)cc3)N2c2ccc(Cl)cc2)c(=O)n(-c2ccccc2)n1C", "Activity", "29%"],
  ["Cc1c(NC(=O)c2sc(=S)n(-c3ccc(Cl)cc3)c2NC(=O)Nc2ccccc2)c(=O)n(-c2ccccc2)n1C", "Activity", "40%"],
  ["Cc1c(NC(=O)CSc2nnc(NC(=S)Nc3ccccc3)s2)c(=O)n(-c2ccccc2)n1C", "Activity", "26%"]
]}

In: Given the molecule Cc1c(NC(=O)c2sc(=S)n(-c3ccccc3)c2NC(=S)Nc2ccccc2)c(=O)n(-c2ccccc2)n1C , what is its reported Activity?
Out: 40%

----------
Reported Activity values are given for each entry in this list.
Tested on: Rattus norvegicus
Assay: Antiinflammatory activity against turpentine oil-induced granuloma pouch in anaesthetized Albino rat sub-acute inflammatory model at 20 mg/kg, po 1 hr before turpentine oil challenge for 7 days assessed after 8 days
Format: functional
Write the answer as a number in %, unit excluded.

{"columns": ["smiles-code", "test-target", "Activity (%)"],
 "data": [
  ["Cc1c(NC(=O)/C(C#N)=C2\\SC=C(c3ccc(Cl)cc3)N2c2ccccc2)c(=O)n(-c2ccccc2)n1C", "Rattus norvegicus", 58],
  ["Cc1c(NC(=O)c2sc(=S)n(-c3ccccc3)c2NC(=S)Nc2ccccc2)c(=O)n(-c2ccccc2)n1C", "Rattus norvegicus", 65],
  ["CC(=O)Nc1nnc(SCC(=O)Nc2c(C)n(C)n(-c3ccccc3)c2=O)s1", "Rattus norvegicus", 60],
  ["Cc1c(NC(=O)c2sc(=S)n(-c3ccccc3)c2N)c(=O)n(-c2ccccc2)n1C", "Rattus norvegicus", 50],
  ["CCOC(=O)Nc1nnc(SCC(=O)Nc2c(C)n(C)n(-c3ccccc3)c2=O)s1", "Rattus norvegicus", 33],
  ["Cc1c(NC(=O)/C(C#N)=C2\\SCC(=O)N2c2ccccc2)c(=O)n(-c2ccccc2)n1C", "Rattus norvegicus", 53],
  ["CCOC(=O)/C(C#N)=C1/SC(C(=O)Nc2c(C)n(C)n(-c3ccccc3)c2=O)=C(N)N1c1ccccc1", "Rattus norvegicus", 53]
]}

// moving on: another record for Activity
In: Given the compound Cc1c(NC(=O)CSc2nnc(N)s2)c(=O)n(-c2ccccc2)n1C , what is its reported Activity?
Out: 62

----------
Test system: Rattus norvegicus
Assay: Antiinflammatory activity against formalin-induced paw edema in anaesthetized Albino rat acute inflammatory model at 20 mg/kg, po dosed 1 hr before formalin challenge assessed after 4 hrs
Format: functional
Reported Activity values are given for each entry in this list.
Write the answer as a number in %, unit excluded.

# example entries with known answers
{"columns": ["smiles-code", "test-target", "readout-unit", "Activity"],
 "data": [
  ["CC(=O)Nc1nnc(SCC(=O)Nc2c(C)n(C)n(-c3ccccc3)c2=O)s1", "Rattus norvegicus", "%", 43],
  ["CCOC(=O)/C(C#N)=C1/SC(C(=O)Nc2c(C)n(C)n(-c3ccccc3)c2=O)=C(N)N1c1ccccc1", "Rattus norvegicus", "%", 29]
]}

In: Given the compound CCOC(=O)Nc1nnc(SCC(=O)Nc2c(C)n(C)n(-c3ccccc3)c2=O)s1 , what is its reported Activity?
Out: 19

----------
System: Rattus norvegicus
Assay: Antiinflammatory activity against formalin-induced paw edema in anaesthetized Albino rat acute inflammatory model at 20 mg/kg, po dosed 1 hr before formalin challenge assessed after 2 hrs
Type: functional
endpoint-label: Activity (%)
Write the answer as a number in %, unit excluded.

{"columns": ["smiles-code", "Activity, %"],
 "data": [
  ["CCOC(=O)/C(C#N)=C1/SC(C(=O)Nc2c(C)n(C)n(-c3ccccc3)c2=O)=C(N)N1c1ccccc1", 26],
  ["Cc1c(NC(=O)C2=C(N)N(c3ccccc3)C(=C(C#N)C#N)S2)c(=O)n(-c2ccccc2)n1C", 40],
  ["CC(=O)Nc1nnc(SCC(=O)Nc2c(C)n(C)n(-c3ccccc3)c2=O)s1", 37],
  ["Cc1c(NC(=O)c2sc(=S)n(-c3ccc(Cl)cc3)c2NC(=O)Nc2ccccc2)c(=O)n(-c2ccccc2)n1C", 37],
  ["Cc1c(NC(=O)CSc2nnc(NC(=S)Nc3ccccc3)s2)c(=O)n(-c2ccccc2)n1C", 31]
]}

In: What measured Activity is associated with Cc1c(NC(=O)CSc2nnc(N)s2)c(=O)n(-c2ccccc2)n1C on Rattus norvegicus?
Out: 43

In: And for Cc1c(NC(=O)/C(C#N)=C2\SC=C(c3ccc(Cl)cc3)N2c2ccc(Cl)cc2)c(=O)n(-c2ccccc2)n1C ?
Out: 40

In: And for CCOC(=O)Nc1nnc(SCC(=O)Nc2c(C)n(C)n(-c3ccccc3)c2=O)s1 ?
Out: 17

----------
System: Rattus norvegicus
Test: Antiinflammatory activity against turpentine oil-induced granuloma pouch in anaesthetized Albino rat sub-acute inflammatory model at 20 mg/kg, po 1 hr before turpentine oil challenge for 7 days assessed after 8 days
Type: functional
Reported Activity values are given for each entry in this list.
Write the answer as a number in %, unit excluded.

# example entries with known answers
{"columns": ["smiles-code", "readout-unit", "Activity"],
 "data": [
  ["Cc1c(NC(=O)c2sc(=S)n(-c3ccc(Cl)cc3)c2NC(=O)Nc2ccccc2)c(=O)n(-c2ccccc2)n1C", "%", 72],
  ["Cc1c(NC(=O)/C(C#N)=C2\\SC=C(c3ccc(Cl)cc3)N2c2ccc(Cl)cc2)c(=O)n(-c2ccccc2)n1C", "%", 60],
  ["Cc1c(NC(=O)CSc2nnc(NC(=S)Nc3ccccc3)s2)c(=O)n(-c2ccccc2)n1C", "%", 19]
]}

// moving on: another record for Activity
In: What measured Activity is associated with Cc1c(NC(=O)C2=C(N)N(c3ccccc3)C(=C(C#N)C#N)S2)c(=O)n(-c2ccccc2)n1C on Rattus norvegicus?
Out: 62

----------
System: Rattus norvegicus
Test: Antiinflammatory activity against formalin-induced paw edema in anaesthetized Albino rat acute inflammatory model at 20 mg/kg, po dosed 1 hr before formalin challenge assessed after 2 hrs
Type: functional
endpoint-label: Activity (%)
Write the answer as a number in %, unit excluded.

# example entries with known answers
{"columns": ["smiles-code", "Activity / %"],
 "data": [
  ["Cc1c(NC(=O)/C(C#N)=C2\\SC=C(c3ccc(Cl)cc3)N2c2ccccc2)c(=O)n(-c2ccccc2)n1C", 29],
  ["Cc1c(NC(=O)/C(C#N)=C2\\SCC(=O)N2c2ccccc2)c(=O)n(-c2ccccc2)n1C", 31],
  ["Cc1c(NC(=O)c2sc(=S)n(-c3ccccc3)c2N)c(=O)n(-c2ccccc2)n1C", 37]
]}

// moving on: another record for Activity
In: What measured Activity is associated with Cc1c(NC(=O)c2sc(=S)n(-c3ccccc3)c2NC(=S)Nc2ccccc2)c(=O)n(-c2ccccc2)n1C on Rattus norvegicus?
Out: 37
